Property: IC50; scope: individual molecules
System: promyelocytic leukemia (HL-60) cells
method.summary: Antiproliferative assay (MTT reduction), HL-60
Format: cell-based
condition.context: Homo sapiens, 72 h, HL-60 promyelocytic leukemia cells, 3 days treatment, read-out: IC50 ± SD, HL-60
Supply the numeric figure in µM, leaving out any unit text.

COC(=O)[C@]12CCC(C)(C)C[C@H]1C1=CCC3[C@@]4(C)CC[C@H](OC(=O)CCCc5cn(S(=O)(=O)c6ccc(C)cc6)nn5)C(C)(C)C4CC[C@@]3(C)[C@]1(C)CC2 (stereo partly drawn)
84.2
CC1(C)CC[C@]2(C(=O)O)CC[C@]3(C)C(=CCC4[C@@]5(C)CC[C@H](OC(=O)CCc6cn(Cc7ccc(Cl)cc7)nn6)C(C)(C)C5CC[C@]43C)[C@@H]2C1 (stereo partly drawn)
35.8

Problem: Can you share its IC50? I mean this molecule: Cc1ccc(S(=O)(=O)n2cc(CCC(=O)O[C@H]3CC[C@@]4(C)C(CC[C@]5(C)C4CC=C4[C@@H]6CC(C)(C)CC[C@]6(C(=O)O)CC[C@]45C)C3(C)C)nn2)cc1 (stereo partly drawn)
Result: 15.9

Problem: Using the record for Cc1ccc(S(=O)(=O)n2cc(CCCC(=O)O[C@H]3CC[C@@]4(C)C(CC[C@]5(C)C4CC=C4[C@@H]6CC(C)(C)CC[C@]6(C(=O)O)CC[C@]45C)C3(C)C)nn2)cc1 (stereo partly drawn) , report its IC50.
Result: 11.5

Problem: Report IC50 for CC1(C)CC[C@]2(C(=O)O)CC[C@]3(C)C(=CCC4[C@@]5(C)CC[C@H](OC(=O)CCCc6cn(CSc7ccccc7)nn6)C(C)(C)C5CC[C@]43C)[C@@H]2C1 (stereo partly drawn) please.
Result: 11.8

Problem: Would you kindly share the measured IC50 for C#CCCCC(=O)O[C@H]1CC[C@@]2(C)C(CC[C@]3(C)C2CC=C2[C@@H]4CC(C)(C)CC[C@]4(C(=O)O)CC[C@]23C)C1(C)C (stereo partly drawn) ?
Result: 22.4

###

# melting point annotations
Return type: number; implicit unit °C.

C#CCCC(=O)O[C@H]1CC[C@@]2(C)C(CC[C@]3(C)C2CC=C2[C@@H]4CC(C)(C)CC[C@]4(C(=O)O)CC[C@]23C)C1(C)C (stereo partly drawn)
235
C#CCCCC(=O)O[C@H]1CC[C@@]2(C)C(CC[C@]3(C)C2CC=C2[C@@H]4CC(C)(C)CC[C@]4(C(=O)OC)CC[C@]23C)C1(C)C (stereo partly drawn)
176
C#CCCC(=O)O[C@H]1CC[C@@]2(C)C(CC[C@]3(C)C2CC=C2[C@@H]4CC(C)(C)CC[C@]4(C(=O)OC)CC[C@]23C)C1(C)C (stereo partly drawn)
173
CC1(C)CC[C@]2(C(=O)O)CC[C@]3(C)C(=CCC4[C@@]5(C)CC[C@H](OC(=O)CCCc6cn(CSc7ccccc7)nn6)C(C)(C)C5CC[C@]43C)[C@@H]2C1 (stereo partly drawn)
198

Problem: Param item = COC(=O)[C@]12CCC(C)(C)C[C@H]1C1=CCC3[C@@]4(C)CC[C@H](OC(=O)CCc5cn(CSc6ccccc6)nn5)C(C)(C)C4CC[C@@]3(C)[C@]1(C)CC2 (stereo partly drawn) ; retrieve measured melting point.
Result: 195

Problem: Data request, read-out melting point, for COc1ccc(-n2cc(CCC(=O)O[C@H]3CC[C@@]4(C)C(CC[C@]5(C)C4CC=C4[C@@H]6CC(C)(C)CC[C@]6(C(=O)O)CC[C@]45C)C3(C)C)nn2)cc1 (stereo partly drawn)
Result: 210

###

Binarize melting point at 200 °C; below is Criterion met, at or above is Criterion not met.

CC1(C)CC[C@]2(C(=O)O)CC[C@]3(C)C(=CCC4[C@@]5(C)CC[C@H](OC(=O)CCc6cn(CSc7ccccc7)nn6)C(C)(C)C5CC[C@]43C)[C@@H]2C1 (some centres unmarked)
Criterion met

Problem: Please indicate whether the reported melting point of C#CCCCC(=O)O[C@H]1CC[C@@]2(C)C(CC[C@]3(C)C2CC=C2[C@@H]4CC(C)(C)CC[C@]4(C(=O)O)CC[C@]23C)C1(C)C (some centres unmarked) is strictly below 200 °C.
Result: Criterion not met

Problem: Identify whether the compound Cc1ccc(S(=O)(=O)n2cc(CCC(=O)O[C@H]3CC[C@@]4(C)C(CC[C@]5(C)C4CC=C4[C@@H]6CC(C)(C)CC[C@]6(C(=O)O)CC[C@]45C)C3(C)C)nn2)cc1 (some centres unmarked) records melting point below 200 °C.
Result: Criterion met

Problem: Identify whether the compound Cc1ccc(S(=O)(=O)n2cc(CCCC(=O)O[C@H]3CC[C@@]4(C)C(CC[C@]5(C)C4CC=C4[C@@H]6CC(C)(C)CC[C@]6(C(=O)O)CC[C@]45C)C3(C)C)nn2)cc1 (some centres unmarked) records melting point below 200 °C.
Result: Criterion met

Problem: Criterion: melting point strictly below 200 °C. Is it met by CC1(C)CC[C@]2(C(=O)O)CC[C@]3(C)C(=CCC4[C@@]5(C)CC[C@H](OC(=O)CCc6cn(Cc7ccc(Cl)cc7)nn6)C(C)(C)C5CC[C@]43C)[C@@H]2C1 (some centres unmarked) ?
Result: Criterion met

###

System: promyelocytic leukemia (HL-60) cells
method.summary: Antiproliferative assay (MTT reduction), HL-60
Format: cell-based
condition.context: Homo sapiens, 72 h, HL-60 promyelocytic leukemia cells, 3 days treatment, read-out: IC50 ± SD, HL-60
pIC50: −log10 of the molar value.
value.kind: pIC50

C#CCCC(=O)O[C@H]1CC[C@@]2(C)C(CC[C@]3(C)C2CC=C2[C@@H]4CC(C)(C)CC[C@]4(C(=O)OC)CC[C@]23C)C1(C)C (stereo partly drawn) [Compound 2]
< 4.00
C#CCCCC(=O)O[C@H]1CC[C@@]2(C)C(CC[C@]3(C)C2CC=C2[C@@H]4CC(C)(C)CC[C@]4(C(=O)OC)CC[C@]23C)C1(C)C (stereo partly drawn) [Compound 4]
< 4.00
COC(=O)[C@]12CCC(C)(C)C[C@H]1C1=CCC3[C@@]4(C)CC[C@H](OC(=O)CCc5cn(-c6ccc(OC)cc6)nn5)C(C)(C)C4CC[C@@]3(C)[C@]1(C)CC2 (stereo partly drawn) [Compound 8]
< 4.00

Problem: Enter reported pIC50 observed with promyelocytic leukemia (HL-60) cells for COc1ccc(-n2cc(CCC(=O)O[C@H]3CC[C@@]4(C)C(CC[C@]5(C)C4CC=C4[C@@H]6CC(C)(C)CC[C@]6(C(=O)O)CC[C@]45C)C3(C)C)nn2)cc1 (stereo partly drawn) [Compound 7]
Result: < 4.00

Problem: Observed pIC50 on promyelocytic leukemia (HL-60) cells for COC(=O)[C@]12CCC(C)(C)C[C@H]1C1=CCC3[C@@]4(C)CC[C@H](OC(=O)CCc5cn(Cc6ccc(Cl)cc6)nn5)C(C)(C)C4CC[C@@]3(C)[C@]1(C)CC2 (stereo partly drawn) [Compound 10] , please.
Result: < 4.00

Problem: What pIC50 appears in the records for this molecule with promyelocytic leukemia (HL-60) cells? COC(=O)[C@]12CCC(C)(C)C[C@H]1C1=CCC3[C@@]4(C)CC[C@H](OC(=O)CCc5cn(S(=O)(=O)c6ccc(C)cc6)nn5)C(C)(C)C4CC[C@@]3(C)[C@]1(C)CC2 (stereo partly drawn) [Compound 12]
Result: 4.65

Problem: For the record CC1(C)CC[C@]2(C(=O)O)CC[C@]3(C)C(=CCC4[C@@]5(C)CC[C@H](OC(=O)CCc6cn(CSc7ccccc7)nn6)C(C)(C)C5CC[C@]43C)[C@@H]2C1 (stereo partly drawn) [Compound 13] , what value of pIC50 is listed for promyelocytic leukemia (HL-60) cells?
Result: 4.74

Problem: Please tell me: pIC50 of COC(=O)[C@]12CCC(C)(C)C[C@H]1C1=CCC3[C@@]4(C)CC[C@H](OC(=O)CCCc5cn(CSc6ccccc6)nn5)C(C)(C)C4CC[C@@]3(C)[C@]1(C)CC2 (stereo partly drawn) [Compound 18] , system promyelocytic leukemia (HL-60) cells?
Result: < 4.00

Problem: Look up pIC50 with promyelocytic leukemia (HL-60) cells for this molecule: COC(=O)[C@]12CCC(C)(C)C[C@H]1C1=CCC3[C@@]4(C)CC[C@H](OC(=O)CCc5cn(-c6ccccc6)nn5)C(C)(C)C4CC[C@@]3(C)[C@]1(C)CC2 (stereo partly drawn) [Compound 6]
Result: < 4.00

Problem: Record lookup: for promyelocytic leukemia (HL-60) cells, what pIC50 belongs to COC(=O)[C@]12CCC(C)(C)C[C@H]1C1=CCC3[C@@]4(C)CC[C@H](OC(=O)CCc5cn(CSc6ccccc6)nn5)C(C)(C)C4CC[C@@]3(C)[C@]1(C)CC2 (stereo partly drawn) [Compound 14] ?
Result: < 4.00

Problem: Which pIC50 is reported with promyelocytic leukemia (HL-60) cells for this entry: CC1(C)CC[C@]2(C(=O)O)CC[C@]3(C)C(=CCC4[C@@]5(C)CC[C@H](OC(=O)CCc6cn(-c7ccccc7)nn6)C(C)(C)C5CC[C@]43C)[C@@H]2C1 (stereo partly drawn) [Compound 5] ?
Result: < 4.00

Problem: // map C#CCCC(=O)O[C@H]1CC[C@@]2(C)C(CC[C@]3(C)C2CC=C2[C@@H]4CC(C)(C)CC[C@]4(C(=O)O)CC[C@]23C)C1(C)C (stereo partly drawn) [Compound 1] to recorded pIC50 (system: promyelocytic leukemia (HL-60) cells)
Result: 4.71
